System: P. morganii A15153
assay-explanation: In vitro MIC by tube dilution, P. morganii (M. morganii) A15153
Type: cell-based
measurement-context: Morganella morganii, A15153, M. morganii A15153; read-out: MIC
Measured MIC, listed per entry.
Quick reminder: number only, in µg/mL, skip the unit.

[[record]]
compound = "C[C@@H](O)[C@H]1C(=O)N2C(C(=O)[O-])=C(SCCc3cccc[n+]3C)C[C@H]12 [Example 5]"
target_under_test = "P. morganii A15153"
u = "µg/mL"
result = 0.06

[[record]]
compound = "C[C@@H](O)[C@H]1C(=O)N2C(C(=O)[O-])=C(SCc3scc[n+]3C)C[C@H]12 [Example 11]"
target_under_test = "P. morganii A15153"
u = "µg/mL"
result = 0.06

[[record]]
compound = "C[C@@H](O)[C@H]1C(=O)N2C(C(=O)[O-])=C(SCc3ccc[n+](C)c3)C[C@H]12 [Example 3]"
target_under_test = "P. morganii A15153"
u = "µg/mL"
result = 0.13

[[record]]
compound = "C[C@@H](O)[C@H]1C(=O)N2C(C(=O)[O-])=C(SCc3n(Cc4ccccc4)cc[n+]3C)C[C@H]12 [Example 13]"
target_under_test = "P. morganii A15153"
u = "µg/mL"
result = 0.016

[[record]]
compound = "Cc1ccc[n+](C)c1CSC1=C(C(=O)[O-])N2C(=O)[C@H]([C@@H](C)O)[C@H]2C1 [Example 7]"
target_under_test = "P. morganii A15153"
u = "µg/mL"
result = 0.016

[[record]]
compound = "C[C@@H](O)[C@H]1C(=O)N2C(C(=O)[O-])=C(SCc3cn(CC(=O)O)n[n+]3C)C[C@H]12 [Example 18]"
target_under_test = "P. morganii A15153"
u = "µg/mL"
result = 32

[[record]]
compound = "C[C@@H](O)[C@H]1C(=O)N2C(C(=O)[O-])=C(SCc3n[n+](C)nn3C)C[C@H]12 [Example 20]"
target_under_test = "P. morganii A15153"
u = "µg/mL"
result = 8

[[record]]
compound = "C[C@@H](O)[C@H]1C(=O)N2C(C(=O)[O-])=C(SCc3cccc[n+]3C)C[C@H]12 [Example 4]"
target_under_test = "P. morganii A15153"
u = "µg/mL"
result = 0.016


[ask] GET /values?readout=MIC&item= C[C@@H](O)[C@H]1C(=O)N2C(C(=O)[O-])=C(SCc3n(C)nc[n+]3C)C[C@H]12 [Example 19]
[reply] 0.06

----------
System: E. coli A15119
assay-explanation: In vitro MIC by tube dilution, E. coli A15119
Type: cell-based
measurement-context: Escherichia coli; E. coli A15119; read-out: MIC
Measured MIC, listed per entry.
Quick reminder: number only, in ng/mL, skip the unit.

[[record]]
molecular_string = "C[C@@H](O)[C@H]1C(=O)N2C(C(=O)[O-])=C(SCc3ccc[n+](C)c3)C[C@H]12"
target_under_test = "E. coli A15119"
measured_endpoint = "MIC"
u = "ng/mL"
result = 30

[[record]]
molecular_string = "C[C@@H](O)[C@H]1C(=O)N2C(C(=O)[O-])=C(SCc3n(C)nc[n+]3C)C[C@H]12"
target_under_test = "E. coli A15119"
measured_endpoint = "MIC"
u = "ng/mL"
result = 8

[[record]]
molecular_string = "Cc1ccc[n+](C)c1CSC1=C(C(=O)[O-])N2C(=O)[C@H]([C@@H](C)O)[C@H]2C1"
target_under_test = "E. coli A15119"
measured_endpoint = "MIC"
u = "ng/mL"
result = 4

[[record]]
molecular_string = "Cc1c(CSC2=C(C(=O)[O-])N3C(=O)[C@H]([C@@H](C)O)[C@H]3C2)ccc[n+]1C"
target_under_test = "E. coli A15119"
measured_endpoint = "MIC"
u = "ng/mL"
result = 8

[[record]]
molecular_string = "C[C@@H](O)[C@H]1C(=O)N2C(C(=O)[O-])=C(SCc3n(Cc4ccccc4)cc[n+]3C)C[C@H]12"
target_under_test = "E. coli A15119"
measured_endpoint = "MIC"
u = "ng/mL"
result = 4

[[record]]
molecular_string = "C[C@@H](O)[C@H]1C(=O)N2C(C(=O)[O-])=C(SCc3cn(C)n[n+]3C)C[C@H]12"
target_under_test = "E. coli A15119"
measured_endpoint = "MIC"
u = "ng/mL"
result = 4


Continue with the compound presented below.
[ask] GET /values?readout=MIC&item= `C[C@@H](O)[C@H]1C(=O)N2C(C(=O)[O-])=C(SCc3n(C)cc[n+]3C)C[C@H]12`
[reply] 8

----------
Test system: S. faecalis A20688
assay-explanation: In vitro MIC by tube dilution, S. faecalis A20688
Assay type: cell-based
measurement-context: Enterococcus faecalis, A20688, S. faecalis A20688; read-out: MIC
Measured MIC, listed per entry.
Quick reminder: number only, in µg/mL, skip the unit.

The following compounds have reported results that may help.
[[record]]
molecular_string = "C[C@@H](O)[C@H]1C(=O)N2C(C(=O)[O-])=C(SCc3cn(C)n[n+]3C)C[C@H]12"
target_under_test = "S. faecalis A20688"
result = 0.13

[[record]]
molecular_string = "Cc1c(CSC2=C(C(=O)[O-])N3C(=O)[C@H]([C@@H](C)O)[C@H]3C2)ccc[n+]1C"
target_under_test = "S. faecalis A20688"
result = 0.13

[[record]]
molecular_string = "C[C@@H](O)[C@H]1C(=O)N2C(C(=O)[O-])=C(SCc3n(Cc4ccccc4)cc[n+]3C)C[C@H]12"
target_under_test = "S. faecalis A20688"
result = 0.13

[[record]]
molecular_string = "C[C@@H](O)[C@H]1C(=O)N2C(C(=O)[O-])=C(SCc3n(C)cc[n+]3C)C[C@H]12"
target_under_test = "S. faecalis A20688"
result = 0.13


Continue with the compound presented below.
[ask] API: value(readout=MIC, system=S. faecalis A20688) for record `Cc1ccc[n+](C)c1CSC1=C(C(=O)[O-])N2C(=O)[C@H]([C@@H](C)O)[C@H]2C1`
[reply] 0.13

----------
Test system: E. cloacae A-9656
assay-explanation: In vitro MIC by tube dilution, E. cloacae A-9656
Type: cell-based
measurement-context: Enterobacter cloacae, A9656, E. cloacae A-9656; read-out: MIC
measured-endpoint: MIC (mg/L)
Quick reminder: number only, in mg/L, skip the unit.

The following molecules have reported results that may help.
[[record]]
molecular_string = "C[C@@H](O)[C@H]1C(=O)N2C(C(=O)[O-])=C(SCc3n(C)nc[n+]3C)C[C@H]12"
target_under_test = "E. cloacae A-9656"
measured_endpoint = "MIC"
result = 0.03

[[record]]
molecular_string = "C[C@@H](O)[C@H]1C(=O)N2C(C(=O)[O-])=C(SCc3scc[n+]3C)C[C@H]12"
target_under_test = "E. cloacae A-9656"
measured_endpoint = "MIC"
result = 0.13


[ask] GET /values?readout=MIC&item= `Cc1scc(CSC2=C(C(=O)[O-])N3C(=O)[C@H]([C@@H](C)O)[C@H]3C2)[n+]1C`
[reply] 0.06

[ask] Do the same for `Cc1sc(CSC2=C(C(=O)[O-])N3C(=O)[C@H]([C@@H](C)O)[C@H]3C2)c(C)[n+]1C` please
[reply] 0.13

[ask] Do the same for `Cc1c(CSC2=C(C(=O)[O-])N3C(=O)[C@H]([C@@H](C)O)[C@H]3C2)ccc[n+]1C` please
[reply] 0.03

[ask] Do the same for `C[C@@H](O)[C@H]1C(=O)N2C(C(=O)[O-])=C(SCc3ccc[n+](C)c3)C[C@H]12` please
[reply] 0.13

[ask] Do the same for `C[C@@H](O)[C@H]1C(=O)N2C(C(=O)[O-])=C(SCc3cn(CC(=O)O)n[n+]3C)C[C@H]12` please
[reply] 125

[ask] Do the same for `C[C@@H](O)[C@H]1C(=O)N2C(C(=O)[O-])=C(SCc3n(Cc4ccccc4)cc[n+]3C)C[C@H]12` please
[reply] 0.03

[ask] Do the same for `C[C@@H](O)[C@H]1C(=O)N2C(C(=O)[O-])=C(SCc3cn(C)n[n+]3C)C[C@H]12` please
[reply] 0.016

[ask] Do the same for `C[C@@H](O)[C@H]1C(=O)N2C(C(=O)[O-])=C(SCc3cs[n+](C)n3)C[C@H]12` please
[reply] 0.06

----------
System: E. cloacae A-9656
assay-explanation: In vitro MIC by tube dilution, E. cloacae A-9656
Format: cell-based
measurement-context: Enterobacter cloacae, A9656, E. cloacae A-9656; read-out: MIC
measured-endpoint: MIC (µg/mL)
Quick reminder: number only, in µg/mL, skip the unit.

[ask] GET /values?readout=MIC&item= C[C@@H](O)[C@H]1C(=O)N2C(C(=O)[O-])=C(SCc3n(C)cc[n+]3C)C[C@H]12 [Example 9]
[reply] 0.03

[ask] Do the same for Cc1ccc[n+](C)c1CSC1=C(C(=O)[O-])N2C(=O)[C@H]([C@@H](C)O)[C@H]2C1 [Example 7] please
[reply] 0.016

[ask] Do the same for C[C@@H](O)[C@H]1C(=O)N2C(C(=O)[O-])=C(SCCc3cccc[n+]3C)C[C@H]12 [Example 5] please
[reply] 0.13
